Each entry below carries its recorded melting point.

Example cases with answers are listed next.
| compound | melting point |
| --- | --- |
| CCOC(=O)C1=C(C)N2CCNC2=C(C(=O)OCC)C1c1cccc(C(=O)OCC)c1 (configuration not stated) | 149 °C |
| CCC(CC)c1ccc(Cl)c2nc3n(c12)CCCCN3c1ccc(SC)cc1C | 113 to 115 °C |
| Fc1ccc(-c2ccc3[nH]c4c(ccc5cc[nH]c54)c3c2)c(F)c1 | > 250 °C |
| O=[N+]([O-])c1ccc2c(c1)ncn2-c1cccc(-c2nccs2)c1 | 251 to 260 °C |

What does the data say about its melting point? Entry: CCOC(=O)c1[nH]c(C)c(C)c1OCC1CO1 (configuration not stated)
70 to 71 °C

And O=C1[C@H]2CCC[C@H]2N(C(=O)CBr)c2ccccc2N1CCCc1ccccc1 (relative stereo) ?
130 to 132 °C

And for CC(C)Oc1cccc(N(C)C(=O)N(C)Cc2c(-c3ccccc3)c3cc(Cl)ccc3c(=O)n2C)c1 ?
143 to 144 °C

====

In this section, each of the molecules is paired with its reported melting point.

Please review the entries below; each comes with its answer.
| molecule | melting point |
| --- | --- |
| CC1(C)CCC(C)(C)c2cc(C#CCc3ccc(C(=O)O)cc3)ccc21 | 159 to 160 °C |
| CCOc1nc2ccccc2n2cc(C(=O)O)nc12 | 220 to 222 °C |
| CCOC(=O)[C@H](CNC(=O)OC(C)(C)C)NS(=O)(=O)N(C)C | 65 to 67 °C |
| O=C(Cc1ccc([N+](=O)[O-])cc1)CN1C(=O)c2ccccc2C1=O | 184 °C |
| Cc1ccccc1-c1cc(F)c2ncc(C(=O)NCc3ccc(Cl)cc3)c(O)c2c1 | 259 to 265 °C |

Please give the measured melting point for this molecule: Cc1ccc(C(=C(C=CC(O)CC(=O)CC(=O)OC(C)(C)C)c2nnnn2C)c2ccc(C)cc2F)c(F)c1 (stereo not given)
55 to 63 °C

// next record CCc1ccc(NC(=O)NCc2ccc3c(c2)CN(C2CCC(=O)NC2=O)C3=O)cc1 (stereo not given)
263 to 265 °C

Note, next up: CC(C)(C)c1ccc(Oc2ncnc3cc(-c4ncccc4C(F)(F)F)ccc23)cc1
162 to 163 °C

====

Readings of melting point for the listed compounds

# example entries with known answers
| compound | metricName | assayValue |
| --- | --- | --- |
| COc1ccc(CNC(=O)c2cc3c(=O)n(Cc4ccc(C(=O)O)cc4)cnc3cn2)cc1 | melting point | 245 to 246 °C |
| COc1ccc(C(=O)c2sc(Nc3ccccc3)nc2NC(=O)Nc2ccc(F)cc2)cc1 | melting point | 177 to 178 °C |
| CC(C)(C)OC(=O)NCc1cc(C(=O)O)ccn1 | melting point | 207 °C |

Requested read-out: melting point. Entry: COc1ccc(N2CCN(N=O)CC2)cc1
94.5 °C

Repeat with CCNC(=O)c1cccc2[nH][nH]c(=O)c12
209 to 210 °C

Likewise for COC(=O)[C@@H]1C[C@H]1C(=O)O (relative stereo) ?
46 to 47 °C

====

Here, each record is paired with measured melting point data.

| compound | assayValue |
| --- | --- |
| O=S(=O)(Nc1cccc(Cl)c1F)c1cc(S(=O)(=O)Nc2cccc(Cl)c2F)c2cc(O)ccc2c1 | 126 to 128 °C |
| COc1ccccc1CC(=O)N1C[C@H]2C(c3ccccc3OC)=CCC(c3ccccc3)(c3ccccc3)[C@H]2C1 | 142 °C |
| Cn1cc(C2=C(c3cn(C)c4cc([N+](=O)[O-])ccc34)C(=O)N(CO)C2=O)c2ccccc21 | 209 to 211 °C |

I have this compound here, COc1ccc(-c2nc(CNC(C)=O)sc2-c2ccc(OC)cc2)cc1 , and I need its recorded melting point.
138 to 141 °C

Then what about the compound CC(C)(c1ccccc1)C(S)C(=O)O (stereo not drawn) ?
70 to 73 °C

Also, CCOC(=O)c1c(SC)sc2c(F)c(F)c(F)cc2c1=O please.
113 to 115 °C

Record: O=C(Nc1ccc(F)cc1)OCC1CSC2=C(O1)c1ccccc1C(=O)C2=O (stereo not drawn)
235 to 237 °C

Now this one: COc1cc(Nc2c(C#N)cnc3cc(/C=C/C(=O)O)ccc23)c(Cl)cc1Cl
237 to 240 °C

Also Cc1cccc2oc(=O)c(=O)[nH]c12 , if possible.
247 to 249 °C

Would you mind doing CC(=O)COc1ccc2c(c1)C(=O)NC(C)(C)O2 as well?
125 to 126 °C

====

Reported melting point values for a set of compounds

| compound | melting point |
| --- | --- |
| CN(C)Cc1ccc(SC2CCNCC2)cc1 | 52 °C |
| CCCCCCCCCCCCCCCCCCOc1cc(N)cc(OCCCCC(=O)OC)c1 | 57 to 59 °C |
| COc1ccc(N(CCN2CCC(C(=O)c3ccc(F)cc3)CC2)C(=O)c2ccc([N+](=O)[O-])cc2)c(OC)c1 | 51 to 54 °C |

What does the record list as melting point for O=c1cc(C(F)(F)F)nc[nH]1 ?
157 °C

Queued: CCOC(=O)Nc1ncc(-c2nc3ccccc3c(=O)n2-c2ccc(OC)cc2)s1
222 to 224 °C

Do the same for CCN(CC)C(=O)c1cc2ccccc2c(-c2cccc(C(F)(F)F)c2)n1 please
76 °C

And the next one, NCC1Cc2cc(-c3ccc(Cl)cc3)cc(F)c2O1 (configuration not stated) ?
> 250 °C

====

metricName: melting point

Sample records with melting point:
| compound | assayValue |
| --- | --- |
| Cc1cccc(NC(=O)NC2N=C(C3CCCCC3)c3ccccc3N(CC(=O)N3CC4CCC(CC4)C3)C2=O)c1 (racemic) | 133 to 135 °C |
| CC(C)Cc1nc(N)c(C(=O)c2c[nH]c3ccccc23)[nH]c1=O | 228 to 230 °C |
| COc1nc(C)c(C)nc1N(C)C(=O)N1CCN(c2cc(Cl)cc(Cl)c2)CC1 | 97 to 99 °C |

Fill in the blank: the reported melting point of Cc1ccc(S(=O)(=O)NC(=O)NC2N=C(c3ccccc3)c3ccccc3N(C)C2=O)cc1 (configuration not stated) is ____.
244 to 246 °C

Note, next up: CCC1(CC)c2ccccc2C(CC)(CC)N1OC(C)(C)C#N
63 to 64 °C

Proceed to CN(C)c1ccccc1CC(=O)N1C[C@@H]2SCCC(c3ccccc3)(c3ccccc3)[C@@H]2C1 (racemic)
163 °C

// next record CC(c1oc2ccccc2c(=O)c1-c1cccc(F)c1)n1nc(-c2cncnc2)c2c(N)ncnc21 (configuration not stated)
207 to 211 °C

Please do the same for COC(=O)COc1cccc(-c2ccc(Cl)cc2)n1 as well.
60 to 63 °C

Lookup CSc1ccc(/C=C/c2ccc(C(=O)O)cn2)cc1
250 to 253 °C

====

metricName: melting point

Sample answers from the record:
| compound | assayValue |
| --- | --- |
| CCOC(=O)c1ccccc1C=C(C)C=CC=C(C)CCC=C(C)C | 47 to 48 °C |
| Clc1ccc(C=Cc2nc[nH]n2)cc1 | 178 to 182 °C |
| COc1ccc2c3ccnc(C)c3n(Cc3ccccc3)c2c1 | 131 to 133 °C |

# get_value(readout='melting point', item= FC1(F)Oc2ccc(C=Cc3nc(CNc4ccc(CCCCn5ccnn5)cc4)co3)cc2O1 )
102 to 104 °C

Thanks! And COc1c(C)nc2sc(Cl)cn2c1=O ?
138 to 141 °C

Same lookup for CN(Cc1ccc[nH]1)C1CCCN(C(=O)c2ccc(Nc3nccc(Nc4ccc(F)cc4)n3)cc2)C1 (stereo not drawn) , please.
148 to 151 °C

What about CCN(CC)C(=O)c1ccc(C(=C2CCNCC2)c2cccc3ccccc23)cc1 ?
80 to 85 °C

Same question, Cn1c2ccc([N+](=O)[O-])cc2c2cc(C(=O)N3CCOCC3)sc21 this time
250 to 252 °C

====

Form field: melting point (one value per entry).

The examples below pair each entry with its known result.
| molecule | melting point |
| --- | --- |
| NC(=O)c1sc2ncnc(-c3cccc(NC(=O)Nc4cccc(C(F)(F)F)c4)c3)c2c1N | 201 to 203 °C |
| COc1ccc(Cl)n2nc(SCc3ccccc3)nc12 | 99 to 100 °C |
| CC(C)n1cnc2c(Nc3cccc(F)c3)nc(NCCO)nc21 | 142 °C |
| Cc1cccc(-c2[nH]c(C(C)C)nc2-c2cccc(-c3ccc(S(N)(=O)=O)cc3F)c2)n1 | 246 to 248 °C |
| O=C1C=C(CO)C(=O)N1 | 104 to 106 °C |
| Nc1csc(-c2ccccc2)c1 | 76 to 78 °C |
| CCc1ccc2ncc(NC(=O)C=Cc3cc(OC)c(OC(C)=O)c(OC)c3)c(-c3ccccc3Cl)c2c1 | 136 to 137 °C |
| CCCc1c(Cl)c2cc(Br)ccc2oc1=O | 96 to 97 °C |

Item under review: CCCOc1cc(C#N)ccc1C(C)=O . Reported melting point?
99.5 to 100 °C

Next record, please: CCC(=O)C(CCCOc1ccc(OCCCc2c(CC)n[nH]c2CC)cc1)C(=O)CC
135 to 136 °C

What would you report for Fc1cccc(NCc2nnc(-c3ccc4c(c3)CCO4)o2)c1 ?
166 to 167 °C
